Values were extracted from PubChem BioAssay (NCI).

System: SNB-75 CNS
Test: NCI tumour cell line growth inhibition, 48 h
Recorded TGI, one value per entry.

Which TGI is reported for this molecule? "CCN(CC)C(=O)c1c(Cl)cc(N(CC)CC)oc1=O" > 100 µM

State the recorded TGI for this entry: "CCOC(=O)/C=C\[C@H]1OC(C)(C)O[C@H]1[C@H](O)[C@H]1COC(C)(C)O1" 13.3 µM

Reported TGI, molecule "c1ccc(C[n+]2ccc3c(c2)CCCC3)cc1" : ____ > 100 µM

Need TGI, item "Cc1c(C(=N)N)oc2ccccc12" > 100 µM

So what's the measured TGI for this one? "C[C@H](NS(=O)(=O)c1ccc(NC(=O)c2ccccc2)cc1)C(=O)O" > 100 µM

# lookup: TGI of "O=c1[nH]c2ccccc2nc1CBr" 34.2 µM
